protocol: Clearance in mouse at 30 mg/kg
Format: ADME, organism-based
Design: dose 30 mg/kg
run.conditions: in vivo
reported.endpoint: clearance (mL/min/kg)
Numbers only here, please. The scale is mL/min/kg.

Problem: Which clearance value is on record for CC(C)OC(=O)N1CCC(Oc2ncnc3c2CCN3c2ccc(S(C)(=O)=O)cc2F)CC1 ?
Solution: 7.2

###

protocol: Half life in mouse at 30 mg/kg
Type: ADME, organism-based
Parameters: dose 30 mg/kg
run.conditions: in vivo
reported.endpoint: half-life (h)
Numbers only here, please. The scale is h.

Problem: Which half-life value is on record for CC(C)OC(=O)N1CCC(Oc2ncnc3c2CCN3c2ccc(S(C)(=O)=O)cc2F)CC1 ?
Solution: 2.8

###

protocol: AUC (0 to 24 hrs) in rat at 10 mg/kg
Format: ADME, organism-based
Parameters: time < 24 hr, dose 10 mg/kg
run.conditions: plasma
reported.endpoint: AUC(0-t) at 24 h (ng·h/mL)
Numbers only here, please. The scale is ng·h/mL.

Problem: Which AUC(0-t) at 24 h value is on record for CC(C)c1noc(N2CCC(Oc3ncnc4c3CCN4c3ccc(S(C)(=O)=O)cc3F)CC2)n1 ?
Solution: 500

###

protocol: Half life in rat at 30 mg/kg
Type: ADME, organism-based
Parameters: dose 30 mg/kg
run.conditions: in vivo
reported.endpoint: half-life
# do not omit the unit; it follows the number

Problem: Which half-life value is on record for CC(C)OC(=O)N1CCC(Oc2ncnc3c2CCN3c2ccc(S(C)(=O)=O)cc2F)CC1 ?
Solution: 8.7 h

###

protocol: Volume of distribution at steady state in mouse at 30 mg/kg
Format: ADME, organism-based
Set-up: dose 30 mg/kg
run.conditions: in vivo, read-out: Vdss
reported.endpoint: Vd
# do not omit the unit; it follows the number

Problem: Which Vd value is on record for CC(C)OC(=O)N1CCC(Oc2ncnc3c2CCN3c2ccc(S(C)(=O)=O)cc2F)CC1 ?
Solution: 0.7 L/kg

###

target: UniProtKB Q8TDV5
protocol: Agonist activity at human GPR119 receptor expressed in CHO-K1 cells co-expressing 6CRE-luciferase gene after 5 hrs by luciferase reporter gene assay
Type: functional, cell-based
run.conditions: read-out: pEC50 (converted)
reported.endpoint: EC50

• CCN(CC)C(=O)CN1CCC(Oc2ncnc3c2CCN3c2ccc(S(C)(=O)=O)cc2F)CC1 = > 10 µM
• CC(C)OC(=O)N1CCC(Oc2ncnc3c2CC(C)N3c2ccc(S(C)(=O)=O)cc2F)CC1 (single isomer, unassigned; (-)) = > 10 µM

Lab note: next compound to report on.
Problem: Which EC50 value is on record for CC(C)OC(=O)N1CCC(S(=O)(=O)c2ncnc3c2CCN3c2ccc(S(C)(=O)=O)cc2F)CC1 ?
Solution: > 10 µM

###

target: Glucose-dependent insulinotropic receptor (Homo sapiens, UniProt Q8TDV5)
Sequence (Q8TDV5 whole entry): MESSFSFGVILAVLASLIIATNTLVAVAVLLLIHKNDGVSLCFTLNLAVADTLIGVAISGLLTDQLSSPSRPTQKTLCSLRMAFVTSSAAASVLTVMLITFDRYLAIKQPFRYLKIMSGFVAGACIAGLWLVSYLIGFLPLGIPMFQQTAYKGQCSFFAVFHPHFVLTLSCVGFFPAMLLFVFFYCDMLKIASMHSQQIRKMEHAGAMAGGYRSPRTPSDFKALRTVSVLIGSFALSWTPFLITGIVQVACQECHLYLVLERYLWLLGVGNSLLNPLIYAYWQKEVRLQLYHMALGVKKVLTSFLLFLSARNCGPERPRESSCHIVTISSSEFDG
protocol: Agonist activity at human GPR119 receptor expressed in CHO-K1 cells co-expressing 6CRE-luciferase gene after 5 hrs by luciferase reporter gene assay
Assay type: functional, cell-based
run.conditions: read-out: pEC50 (converted)
Lab note: compare EC50 with 300 nM, writing t if less and f if equal or more.

These solved cases illustrate the format of a correct answer.
- CC(C)(C)OC(=O)N1CCC(Oc2cccc3c2CCN3c2ccc(S(C)(=O)=O)cc2)CC1: t
- CC(C)OC(=O)N1CCC(Oc2ncnc3c2CCN3c2ccc(C#N)cn2)CC1: f
- CSc1ccc(N2CCc3c(OC4CCN(C(=O)OC(C)C)CC4)ncnc32)c(F)c1: f
- CNc1nc(OC2CCN(C(=O)OC(C)C)CC2)c2c(n1)N(c1ccc(S(C)(=O)=O)cc1F)CC2: f
- CC(C)OC(=O)N1CCC(Oc2ncnc3c2CCN3c2ccc(S(C)(=O)=O)cc2)CC1: t

Problem: Bench note: check whether CC(C)OC(=O)N1CCC(Oc2ncnc3c2CCN3c2ccc(S(C)(=O)=O)nc2)CC1 shows EC50 below 300 nM
Solution: t

Problem: Bench note: check whether CCOC(=O)N1CCC(Oc2ncnc3c2CCN3c2ccc(S(C)(=O)=O)cc2F)CC1 shows EC50 below 300 nM
Solution: t

Problem: Bench note: check whether CC(C)(C)OC(=O)N1CCC(Oc2ncnc3c2CCN3c2ccc(S(C)(=O)=O)cc2F)CC1 shows EC50 below 300 nM
Solution: t

Problem: Bench note: check whether CC(C)OC(=O)N1CCC(Oc2cccc3c2CCN3c2ccc(S(C)(=O)=O)cc2F)CC1 shows EC50 below 300 nM
Solution: f

Problem: Bench note: check whether Cc1nc(OC2CCN(c3nc(C(C)C)no3)CC2)c2c(n1)N(c1ccc(S(C)(=O)=O)cc1F)CC2 shows EC50 below 300 nM
Solution: t
